biological target: Cbl-b (Homo sapiens); construct: Cbl-b-HiBit KI Jurkat Cells were purchased from Promega; host or cells: Cbl-b-HiBiT knock-in Jurkat cells; experiment: Cbl-b Degradation Method A (FACS, anti-Cbl-b antibody staining); format: cell-based; details: Jurkat, Cbl-b-HiBit KI Jurkat Cells, incubated at least 20 hours; maximum degradation observed; read-out: Cbl-b Degredation Method A Dmax (%)
Sequence (Q13191 whole entry): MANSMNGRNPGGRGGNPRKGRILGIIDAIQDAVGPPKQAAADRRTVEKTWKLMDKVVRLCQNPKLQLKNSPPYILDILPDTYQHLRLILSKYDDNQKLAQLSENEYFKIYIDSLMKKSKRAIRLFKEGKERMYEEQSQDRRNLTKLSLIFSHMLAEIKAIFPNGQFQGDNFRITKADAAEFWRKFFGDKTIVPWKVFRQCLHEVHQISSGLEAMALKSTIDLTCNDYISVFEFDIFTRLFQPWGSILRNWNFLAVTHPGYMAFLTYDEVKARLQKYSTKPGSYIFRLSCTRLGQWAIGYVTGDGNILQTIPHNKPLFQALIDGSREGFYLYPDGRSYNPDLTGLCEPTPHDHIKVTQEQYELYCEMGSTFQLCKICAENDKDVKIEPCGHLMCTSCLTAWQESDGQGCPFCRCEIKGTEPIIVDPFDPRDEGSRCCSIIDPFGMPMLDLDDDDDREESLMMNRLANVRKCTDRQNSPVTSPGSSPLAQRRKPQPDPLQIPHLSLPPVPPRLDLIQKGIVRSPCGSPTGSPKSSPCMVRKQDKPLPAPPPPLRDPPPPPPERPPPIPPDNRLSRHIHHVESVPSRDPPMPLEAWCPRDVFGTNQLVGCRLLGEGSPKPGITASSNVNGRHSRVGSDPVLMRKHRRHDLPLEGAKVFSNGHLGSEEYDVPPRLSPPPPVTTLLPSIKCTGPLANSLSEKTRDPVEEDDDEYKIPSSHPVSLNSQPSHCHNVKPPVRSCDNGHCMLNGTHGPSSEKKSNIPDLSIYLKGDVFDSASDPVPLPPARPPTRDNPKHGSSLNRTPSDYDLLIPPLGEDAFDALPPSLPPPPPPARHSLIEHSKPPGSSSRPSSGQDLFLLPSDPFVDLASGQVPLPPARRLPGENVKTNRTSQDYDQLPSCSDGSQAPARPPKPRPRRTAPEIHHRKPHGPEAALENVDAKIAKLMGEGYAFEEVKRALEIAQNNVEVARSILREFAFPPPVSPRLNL
Reported Dmax values for the following compounds.

1) Cn1cnnc1C[C@]1(c2cccc(N3Cc4c(cc(N5CC6(CCN(CC7(F)CCN(c8ccc9c(c8)C(=O)N(C8CCC(=O)NC8=O)C9=O)CC7)CC6)C5)cc4C(F)(F)F)C3=O)c2)C[C@H](C#N)C1 (stereo partly drawn) : 35 to 70%
2) Cn1cnnc1C[C@]1(c2cccc(N3Cc4c(cc(CN5CCN(C[C@H]6CC[C@H](OC7CCN(c8cccc9c8nc(OC(F)F)n9C8CCC(=O)NC8=O)CC7)CC6)CC5(C)C)cc4C(F)(F)F)C3=O)c2)C[C@H](C#N)C1 (stereo partly drawn) : 35 to 70%
3) Cn1cnnc1CC1(c2cccc(-n3cc4c(C(F)(F)F)cc(CN5CCC[C@H](CN6CCN(C[C@H]7CC[C@@H](OC8CCN(c9ccc%10c(c9F)CN(C9CCC(=O)NC9=O)C%10=O)CC8)CC7)CC6)C5)cc4n3)c2)COC1 (stereo partly drawn) : > 70%
4) Cn1cnnc1CC1(c2cccc(N3Cc4c(cc(CN5CCC[C@H](CN6CCN(C[C@H]7CC[C@@H](OC8CCN(c9ccc%10c(c9Cl)CN(C9CCC(=O)NC9=O)C%10=O)CC8)CC7)CC6)C5)cc4C(F)(F)F)C3=O)c2)COC1 (stereo partly drawn) : > 70%
5) Cc1cc(N2CCC(O[C@H]3CC[C@H](CN4CCC5(CC4)CN(c4cc6c(c(C(F)(F)F)c4)CN(c4cccc([C@]7(Cc8nncn8C)C[C@@H](C#N)C7)c4)C6=O)C5)CC3)CC2)c(F)c2c1C(=O)N(C1CCC(=O)NC1=O)C2 (stereo partly drawn) : 35 to 70%

# input Report Dmax, nothing else, for this compound: Cn1cnnc1C[C@]1(c2cccc(N3Cc4c(cc(CN5CCN(C[C@H]6CC[C@H](OC7CCN(c8ccc9c(c8)n(C)c(=O)n9C8CCC(=O)NC8=O)CC7)CC6)CC5)cc4C(F)(F)F)C3=O)c2)C[C@H](C#N)C1 (stereo partly drawn)
# output > 70%
